These measurements were taken from patent US20250027068A1.

So I've got a bunch of binders here, and I need their Enzyme Activity Endpoint Assay: Fc values.
target_entity: pooled human IgG (human IgG1, 2, 3 and 4) (human); note: test concentration or dose not given here
protocol_details: cell-based or functional assay
Answers are plain numbers, in ng/µL.

binder	readout_type	units_label	test_result
PRT-388 (enzyme) MVTSVWTKGVTPPTNFTYGEDVLHAPYVANQGWYDITKTFNGKDTLLCGAATAGNMLHWWFDQNKEQIENYLKKHPEKQKINFNGEQMFDVKEAIDTKDSQLDSKLFEYFKEKAFPYLSTKHLGVFPDHVIDMFINGYRLSLTNHGPTPVKRGSKDPRGGIFDAVFTRGDQSKLLTNRHDFKEKTLKEISDLIKQELTEGKALGISHTYANVRINHVINLWGADFDAEGNLEAIYVTDSDSNASIGMKKYFVGVNSNGKVAISAKEIEEDNIGAQVLGLFTLSTGQDIWNQTN	Enzyme Activity Endpoint Assay: Fc	ng/µL	338
PRT-409 (enzyme) MVTSVWTKGVTPPADFTQGEDVFHAPYVANQGWYDITKTFNGKDDLLCGAATAGNMLHWWFDQNKEYIEAYLKKHPEKQKIMFGDQELLDVRKAINTKGSQKNSELFNYFRDKAFPNLSARRLGVMPDLVLDMFINGYYLNVTKTQTTDVNRTYQEKDKRGGIFDAVFTRGVQSKLLTSRHDFKEKGLKEISDLIKQELTEGKALGLSHTYANVRINHVINLWGADFDSDGNLKAIYVTDSDSNASIGMKKYFVGVNSAGKVAISAKEIKEDNIGAQVLGLFTLSTGQDIWNQTN	Enzyme Activity Endpoint Assay: Fc	ng/µL	313
PRT-419 (enzyme) MTITSVWTKGVTPPTPEDFRYNNEDVLHAPYVANQGWYDITKTFDGKDNLLCGAATAGNMLHWWFDQNKEEIERYLKKHPEKQKIIFNNQELFDVKAAIDTKDSQTNSKLFNYFRDKAFPNLSARQLGVMPDLVLDMFINGYYLNLGKTQSTDVNRPYQDKDKRGGIFDAVFTRGDQTTLLTARHDLKNKGLNEISDLIKQELTEGKALALSHTYANVRINHVINLWGADFDAEGNLIAIYVTDSDANASIGMKKYFVGVNANGKVAISAKKIEGDNIGAQVLGLFTLSTGQDQWQKLS	Enzyme Activity Endpoint Assay: Fc	ng/µL	298
PRT-380 (enzyme) MVTSVWTKGVTPPTNFTYGEDVLHAPYVANQGWYDITKTFNGKDDLLCGAATAGNMLHWWFDQNKEQIENYLKKHPEKQKINFNGEQMFDVKEAIDTKDSQLDSKLFEYFKEKAFPYLSTKHLGVFPDHVIDMFINGYRLSLTNHGPTPVKRGSKDPRGGIFDAVFTRGDQSKLLTNRHDFKEKTLKEISDLIKQELTEGKALGISHTYANARINHVINLWGADFDAEGNLEAIYVTDSDSNASIGMKKYFVGVNSNGKVAISAKEIEEDNIGAQVLGLFTLSTGQDIWNQTN	Enzyme Activity Endpoint Assay: Fc	ng/µL	258
PRT-288 (enzyme) MVTSVWTKGVTPPAKFTQGEDVFHAPYDANQGWYDITKEFNGKDDLLCGAATAGNMLHWWFDQNKEKIEAYLKKHPDKQKIMFGDQELLDVRKVINTKGDQTNSELFNYFRDKAFPNLSARRIGVMPDLVLDMFINGYYLNVYKTQTTDVNRTYQEKDRRGGIFDAVFTRGDQSKLLTSRHDFKEKNLKEISDLIKKELTEGKALGLSHTYANVRIGHVINLWGADFDSNGNLKAIYVTDSDSNASIGMKKYGVGVNSAGKVAISAKEIKEDNIGAQVLGLFTLSTGQDSWNQTN	Enzyme Activity Endpoint Assay: Fc	ng/µL	334

Would you be so kind as to report Enzyme Activity Endpoint Assay: Fc for each listed record?
1. PRT-410 (enzyme) MVTSVWTKGVTPPADFTQGEDVFHAPYVANQGWYDITKTFNGKDDLLCGAATAGNMLHWWFDQNKEYIEAYLKKHPEKQKIMFGDQELLDVRKAINTKGSQKNSELFNYFRDKAFPNLSARRLGVMPDLVLDMFINGYYLNVTKTQTTDVNRTYQEKDKRGGIFDAVFTRGDQSKLLTSRHDFKEKGLKEISDLIKQELTEGKALGLSHTYANVRINHVINLWGADFDSDGNLKAIYVTDSDTNASIGMKKYFVGVNSAGKVAISAKEIKEDNIGAQVLGLFTLSTGQDIWNQTN
2. PRT-393 (enzyme) MVTSVWTKGVTPPTNFTYGEDVLHAPYVANQGWYDITKTFNGKDDLLCGAATAGNMLHWWFDQNKEQIENYLKKHPEKQKINFNGEQMFDVKEAIDTKDSQLDSKLFEYFKEKAFPYLSTKHLGVFPDHVIDMFINGYRLSLTNHGPTPVKRGSKDPRGGIFDAVFTRGDQSKLLTNRHDFKEKTLKEISDLIKQELTEGKALGISHTYANVRINHVINLWGADFDAEGNLEAIYVTDSDTNASIGMKKYFVGVNSNGKVAISAKEIEEDNIGAQVLGLFTLSTGQDIWNQTN
3. PRT-280 (enzyme) MVTSVWTKGVTPPAKFTQGEDVFHAPYVANQGWYDITKTFNGKDDLLCGAATAGNMLHWWFDQNKEKIEAYLKKHPDKQKIMFGDQELLDVRKVINTKGDQTNSELFNYFRDKAFPNLSARRIGVMPDLVLDMFINGYYLNVYKTQTTDVNRTYQEKDRRGGIFDAVFTRGDQSKLLTSRHDFKEKNLKEISDLIKKELTEGKALGLSHTYANVGINHVINLWGADFDSNGNLKAIYVTDSDSNASIGMKKYFVGVNSSGKVAISAKEIKEDNIGAQVLGLFTLSTGQDSWNQTN

## Result
[297, 317, 305]
